Test system: Saccharomyces cerevisiae
methodSummary: protein stability index of tFT-peptide fusion (C-terminal peptide) (PSI (0-1 scale)); higher = more stable (slower turnover)
experimentalConditions: genetic background: wild type; temperature: 30 C
Each entry below carries its reported protein stability index.

Ask: // lookup protein stability index for "GGRSGGWCGCWG"
Result: 0.711

Ask: Item under review: "TYYCFYCHPSLL" . Reported protein stability index?
Result: 0.699

Ask: Using the record for "ETGGQTELKVVH" , report its protein stability index.
Result: 0.683

Ask: // returns reported protein stability index for input "TRFCDFTSSVTT"
Result: 0.711

Ask: Looking for the measured protein stability index of "NKKGMSIWANER" , can you help?
Result: 0.689

Ask: GET /values?readout=protein stability index&item= "RGSPPDPRGRAG"
Result: 0.685

Ask: Look up protein stability index: "GRKKKINDDKKN"
Result: 0.688

Ask: Can you share its protein stability index? I mean this sequence: "GCARLPALCCMF"
Result: 0.694

Ask: Give its protein stability index value. Item: "PSVSPLFSSPPP"
Result: 0.719

Ask: // query protein stability index value for entry "CVLFYPLLLPGV"
Result: 0.599

Ask: Reported protein stability index, sequence "PNPLCQPPTGRP" : ____
Result: 0.705

Ask: May I ask what protein stability index has been recorded for "FFRLFAPLLVVL" ?
Result: 0.212

----------
Tested on: Saccharomyces cerevisiae
methodSummary: protein stability index of tFT-peptide fusion (C-terminal peptide) (PSI (0-1 scale)); higher = more stable (slower turnover)
experimentalConditions: genetic background: wild type; temperature: 30 C
Using protein stability index as the sorting value, the categories are group A: < 0.6; group B: ≥ 0.6 and < 0.7; group C: ≥ 0.7

The examples below pair each entry with its known result.
[
  {
    "residues": "VTGFGVAIVCVT",
    "label": "group A"
  },
  {
    "residues": "RIMFVGYPLDWL",
    "label": "group B"
  },
  {
    "residues": "PFEVPSSVISVP",
    "label": "group B"
  },
  {
    "residues": "WCAMITVFCGSG",
    "label": "group A"
  },
  {
    "residues": "RCCGLWVDGFLL",
    "label": "group C"
  }
]

Would you kindly look at the next entry?
Ask: # bin lookup: classify "GPPTKLTLNQQK" by its protein stability index
Result: group B

----------
System: Saccharomyces cerevisiae
methodSummary: protein stability index of tFT-peptide fusion (C-terminal peptide) (PSI (0-1 scale)); higher = more stable (slower turnover)
experimentalConditions: genetic background: wild type; temperature: 30 C
valueType: protein stability index
Output spec: single numeric token, no unit.

[
  {
    "residues": "YKNNWLILQQQD [KSP1 C-terminal 12 aa]",
    "protein stability index": 0.703
  },
  {
    "residues": "ELASSILKELKL [KIN1 C-terminal 12 aa]",
    "protein stability index": 0.703
  },
  {
    "residues": "AKWSISHKSNTG [YIL066W-A C-terminal 12 aa]",
    "protein stability index": 0.69
  }
]

Ask: # protein stability index lookup, item YANAPIEEKPLI [PUN1 C-terminal 12 aa]
Result: 0.683

Ask: GET /values?readout=protein stability index&item= KCEEVNDGLRWK [EHD3 C-terminal 12 aa]
Result: 0.711

Ask: Fill in the blank: the reported protein stability index of RPDSTAPSNENQ [PEP1 C-terminal 12 aa] is ____.
Result: 0.724

Ask: What value of measured protein stability index is listed for KKPFDKKPKFNI [YKU70 C-terminal 12 aa] ?
Result: 0.686

Ask: Give the measured protein stability index of SVYQPFFALCGL [YDR355C C-terminal 12 aa] .
Result: 0.645

Ask: Sample FKLKDEYLLIDD [SAS2 C-terminal 12 aa] — what was its protein stability index?
Result: 0.666

Ask: Dear colleague, I am looking for the recorded protein stability index of the following sequence: STKFLRSFGQTI [SWP1 C-terminal 12 aa]
Result: 0.686

Ask: Requested field: protein stability index. Item: MTLDSWQPLTPK [INP53 C-terminal 12 aa]
Result: 0.712

Ask: I would be grateful if you could share the reported protein stability index for CDLVKNSNGLST [YOR200W C-terminal 12 aa] .
Result: 0.685

Ask: Which protein stability index value is on record for FRSTRSNTPNYT [HDA2 C-terminal 12 aa] ?
Result: 0.737

Ask: Form field: reported protein stability index of EAVKNDDIQIFG [BFR2 C-terminal 12 aa]
Result: 0.722

Ask: Which protein stability index value is on record for LVEGQTFDADVE [EGD1 C-terminal 12 aa] ?
Result: 0.671

Ask: I'd like to know its protein stability index. The sequence in question is VLFLEDNGFFVF [MET3 C-terminal 12 aa]
Result: 0.775

Ask: Give its protein stability index value. Item: RCWVQAVFDVPQ [ABP140 C-terminal 12 aa]
Result: 0.691

Ask: Please report the recorded protein stability index for LRVYENFQKFIK [YMR262W C-terminal 12 aa] .
Result: 0.705

Ask: Query: protein stability index; subject: DDCLIELPNGNI [RRN9 C-terminal 12 aa]
Result: 0.703

Ask: Recorded protein stability index of YTINYETNTVEY [NUP133 C-terminal 12 aa] , please.
Result: 0.645

Ask: Can you share its protein stability index? I mean this sequence: VMGQFLPIFEMD [GSM1 C-terminal 12 aa]
Result: 0.713

Ask: Please report the recorded protein stability index for DNNDLAKSSSQK [CMI7 C-terminal 12 aa] .
Result: 0.66

----------
Tested on: Saccharomyces cerevisiae
methodSummary: protein stability index of tFT-peptide fusion (C-terminal peptide) (PSI (0-1 scale)); higher = more stable (slower turnover)
experimentalConditions: genetic background: wild type; temperature: 30 C
Reported protein stability index values for a set of sequences
The answer should be written as a number, with no unit following it.

[
  {
    "residues": "WYLLCESCLLCL",
    "targetEntity": "Saccharomyces cerevisiae",
    "protein stability index": 0.408
  },
  {
    "residues": "RCIFYHSPVLCL",
    "targetEntity": "Saccharomyces cerevisiae",
    "protein stability index": 0.398
  },
  {
    "residues": "SVFVFFGFIDFL",
    "targetEntity": "Saccharomyces cerevisiae",
    "protein stability index": 0.412
  },
  {
    "residues": "SPLHGFLFLVLL",
    "targetEntity": "Saccharomyces cerevisiae",
    "protein stability index": 0.403
  },
  {
    "residues": "VSFRISAIFVCV",
    "targetEntity": "Saccharomyces cerevisiae",
    "protein stability index": 0.202
  }
]

Ask: Fill blank: measured protein stability index of the sequence "WLVIWPRKLSTV" is ____.
Result: 0.397

Ask: Report protein stability index for "VMRMVWVLGVMC" please.
Result: 0.203

----------
Measured protein stability index accompanies every entry in the list below.
Tested on: Saccharomyces cerevisiae
methodSummary: protein stability index of tFT-peptide fusion (C-terminal peptide) (PSI (0-1 scale)); higher = more stable (slower turnover)
experimentalConditions: genetic background: das1 deletion; temperature: 30 C
The answer should be a number; do not append a unit.

The cases that follow already have their protein stability index on record.
[
  {
    "residues": "IADASSLSWNMK [LEM3 C-terminal 12 aa]",
    "targetEntity": "Saccharomyces cerevisiae",
    "valueType": "protein stability index",
    "measuredNumber": 0.697
  },
  {
    "residues": "DIPRSNVYGSLI [SCY1 C-terminal 12 aa]",
    "targetEntity": "Saccharomyces cerevisiae",
    "valueType": "protein stability index",
    "measuredNumber": 0.713
  },
  {
    "residues": "KMLDALKNERKK [HTL1 C-terminal 12 aa]",
    "targetEntity": "Saccharomyces cerevisiae",
    "valueType": "protein stability index",
    "measuredNumber": 0.716
  },
  {
    "residues": "VASLPSRYSRYD [ALR1 C-terminal 12 aa]",
    "targetEntity": "Saccharomyces cerevisiae",
    "valueType": "protein stability index",
    "measuredNumber": 0.711
  },
  {
    "residues": "LGLSLRRGTEIW [MRP8 C-terminal 12 aa]",
    "targetEntity": "Saccharomyces cerevisiae",
    "valueType": "protein stability index",
    "measuredNumber": 0.727
  }
]

Ask: Give the measured protein stability index of HQNENMFLTELY [YDL247W-A C-terminal 12 aa] .
Result: 0.721

Ask: I would be grateful if you could share the reported protein stability index for ILERRLNEDHDC [KXD1 C-terminal 12 aa] .
Result: 0.696

Ask: If you can, please state the reported protein stability index value of EIKCCHNGRALK [SAT4 C-terminal 12 aa] .
Result: 0.668

Ask: Consider the sequence EKAKKSLSKMFS [CPR6 C-terminal 12 aa] and give its measured protein stability index.
Result: 0.688

Ask: Data request, read-out protein stability index, for NYRLEEQDVLTW [LYS14 C-terminal 12 aa]
Result: 0.721

Ask: Would you kindly share the measured protein stability index for KLDIPVSFLLAA [YBL053W C-terminal 12 aa] ?
Result: 0.443

Ask: So what does the record say about protein stability index for YVSHKGFIVEDM [RPL9B C-terminal 12 aa] ?
Result: 0.695

Ask: Bench note: what protein stability index did EIALRKSGAVGS [YMR008C-A C-terminal 12 aa] show?
Result: 0.689

Ask: Return reported protein stability index; argument: PLRLLIRPVGEL [YOR248W C-terminal 12 aa]
Result: 0.679
